Assay: Stability test of different crystal forms
Type: physicochemical
Details: Placed under light for 10 days
metric: Content (%)

>>> measured_value("CCc1cc2c(N3CCC(C)(OC)CC3)c(C#N)c(=O)[nH]c2cn1 [Crystal form V]")
98.1
>>> measured_value("CCc1cc2c(N3CCC(C)(OC)CC3)c(C#N)c(=O)[nH]c2cn1 [Crystal form I]")
99.3
>>> measured_value("CCc1cc2c(N3CCC(C)(OC)CC3)c(C#N)c(=O)[nH]c2cn1 [Crystal form II]")
99.4
>>> measured_value("CCc1cc2c(N3CCC(C)(OC)CC3)c(C#N)c(=O)[nH]c2cn1 [Crystal form IV]")
90.9

---

Test: Solubility in test solutions at different pHs and water
Assay type: physicochemical
Conditions: pH 6.8 phosphate buffered solution, 37° C.
metric: 24-hour solubility (µg/mL)

>>> measured_value("CCc1cc2c(N3CCC(C)(OC)CC3)c(C#N)c(=O)[nH]c2cn1 [Crystal form IV]")
130
>>> measured_value("CCc1cc2c(N3CCC(C)(OC)CC3)c(C#N)c(=O)[nH]c2cn1 [Crystal form VII]")
130
>>> measured_value("CCc1cc2c(N3CCC(C)(OC)CC3)c(C#N)c(=O)[nH]c2cn1 [Crystal form III]")
120
>>> measured_value("CCc1cc2c(N3CCC(C)(OC)CC3)c(C#N)c(=O)[nH]c2cn1 [Crystal form II]")
140

---

Test: Stability test of different crystal forms
Format: physicochemical
Conditions: Placed at RH 92.5% for 5 days
metric: Content (%)

>>> measured_value("CCc1cc2c(N3CCC(C)(OC)CC3)c(C#N)c(=O)[nH]c2cn1 [Crystal form III]")
99.9
>>> measured_value("CCc1cc2c(N3CCC(C)(OC)CC3)c(C#N)c(=O)[nH]c2cn1 [Crystal form I]")
99.7
>>> measured_value("CCc1cc2c(N3CCC(C)(OC)CC3)c(C#N)c(=O)[nH]c2cn1 [Crystal form VI]")
99.9
>>> measured_value("CCc1cc2c(N3CCC(C)(OC)CC3)c(C#N)c(=O)[nH]c2cn1 [Crystal form VII]")
100.0

---

Experiment: Stability test of different crystal forms
Format: physicochemical
Settings: Placed under light for 5 days
metric: Content (%)

>>> measured_value("CCc1cc2c(N3CCC(C)(OC)CC3)c(C#N)c(=O)[nH]c2cn1 [Crystal form VI]")
99.6
>>> measured_value("CCc1cc2c(N3CCC(C)(OC)CC3)c(C#N)c(=O)[nH]c2cn1 [Crystal form I]")
99.7
>>> measured_value("CCc1cc2c(N3CCC(C)(OC)CC3)c(C#N)c(=O)[nH]c2cn1 [Crystal form III]")
99.8
>>> measured_value("CCc1cc2c(N3CCC(C)(OC)CC3)c(C#N)c(=O)[nH]c2cn1 [Crystal form VII]")
99.6
